These data points were gathered from paper PMC9482650.

Molecular target: LNX1_1, Q8TBB1
Sequence (Q8TBB1 261-371): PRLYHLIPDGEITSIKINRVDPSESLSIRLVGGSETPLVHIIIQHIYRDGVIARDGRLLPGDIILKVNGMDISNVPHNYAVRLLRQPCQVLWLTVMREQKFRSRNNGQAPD
Experiment: holdup assay
Set-up: key: below the threshold = too weak to quantify, mostly under pKd 3.1 to 4
Details: plain residues with an end cap or a label only (N-terminal biotin on a linker: ado-ado)
testReadout: pKd

Guide cases for pKd, answers given:
> print(dat)
                          binder       observedresult
1   NISARRFTLC [FAM167B, Q9BTA0]                 3.85
2  KSRPENGTVC [TMEM178B, H3BS89]  below the threshold
3    KIEDVEITLV [FCHSD2, O94868]  below the threshold
4    QKASRNESTF [POLR1D, P0DPB6]                 3.52
5     LVEEEEPMNL [HDAC7, Q8WUI4]  below the threshold

Give pKd for HDDYFYHDEL [RCN2, Q14257]
below the threshold

Return reported pKd. Input binder: SAGADSETHC [SLCO1B1, Q9Y6L6]
below the threshold

Return pKd (reported value) for this binder: AHGSTRDQSI [KCNB1, Q14721]
below the threshold

State its pKd: NSTHNLKDYV [CLDN20, P56880]
below the threshold

Please supply the value of reported pKd for the item QRYPGNQTTC [CCL24, O00175]
3.78

Supply recorded pKd for EAVTVESTSL [SLC22A11, Q9NSA0] here.
3.5

Assign pKd to the following record: EKPIDSETKM [SLC1A3, P43003]
below the threshold

For the binder TKEIPNCTSV [SORCS3, Q9UPU3] , report pKd.
3.75

Consider the binder GSQSQVETEA [FKBP4, Q02790] and give its recorded pKd.
below the threshold
